# System Name: Melanocortin receptor 3 (Homo sapiens)
# Sequence (P41968 whole entry): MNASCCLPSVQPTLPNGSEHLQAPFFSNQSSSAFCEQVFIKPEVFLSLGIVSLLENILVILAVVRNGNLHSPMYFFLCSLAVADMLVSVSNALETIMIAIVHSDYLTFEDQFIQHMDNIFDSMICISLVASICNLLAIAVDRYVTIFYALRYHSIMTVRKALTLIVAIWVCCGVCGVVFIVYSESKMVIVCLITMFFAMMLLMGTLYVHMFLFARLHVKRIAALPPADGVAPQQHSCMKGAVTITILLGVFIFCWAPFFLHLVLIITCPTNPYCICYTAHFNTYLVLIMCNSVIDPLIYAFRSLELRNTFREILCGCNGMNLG
# Measurement Notes: Agonistic activity against human melanocortin receptor (hMC3R) for cAMP accumulation at a concentration of 50 uM
# Assay type: functional
Overview of reported cAMP accumulation across a group of molecules:
Quantity Name: cAMP accumulation (%)

Molecule | System Name | Quantity Name | Unit Annotation | Endpoint Result
CCCCC(=O)N[C@@H]1CC(=O)NCCCC[C@@H](C(N)=O)NC(=O)[C@H](Cc2c[nH]c3ccccc23)NC(=O)[C@@H](CCCNC(N)=O)NC(=O)[C@H](Cc2ccccc2)NC(=O)C2(CCc3c(Cl)cccc3C2)NC1=O (single isomer, unassigned; form 2) | Melanocortin receptor 3 (Homo sapiens) | cAMP accumulation | % | 0
CCCCC(=O)N[C@@H]1CC(=O)NCCCC[C@@H](C(N)=O)NC(=O)[C@H](Cc2c[nH]c3ccccc23)NC(=O)[C@@H](CCCN=C(N)N)NC(=O)[C@H](Cc2ccccc2)NC(=O)C2(CCc3c(Cl)cccc3C2)NC1=O (single isomer, unassigned; form 2) | Melanocortin receptor 3 (Homo sapiens) | cAMP accumulation | % | 0
CCCCC(=O)N[C@@H]1CC(=O)NCCCC[C@@H](C(N)=O)NC(=O)[C@H](Cc2c[nH]c3ccccc23)NC(=O)[C@@H](CCCNC(N)=O)NC(=O)[C@H](Cc2ccccc2)NC(=O)C2(CCc3c(Cl)cccc3C2)NC1=O (single isomer, unassigned; form 1) | Melanocortin receptor 3 (Homo sapiens) | cAMP accumulation | % | 0
CCCCC(=O)N[C@@H]1CC(=O)NCCCC[C@@H](C(N)=O)NC(=O)[C@H](Cc2c[nH]c3ccccc23)NC(=O)[C@@H](CCCN=C(N)N)NC(=O)[C@H](Cc2ccccc2)NC(=O)C2(CCc3c(Cl)cccc3C2)NC1=O (single isomer, unassigned; form 1) | Melanocortin receptor 3 (Homo sapiens) | cAMP accumulation | % | 25

---

# System Name: Melanocortin receptor 4 (Homo sapiens, UniProt P32245)
# Sequence (P32245 whole entry): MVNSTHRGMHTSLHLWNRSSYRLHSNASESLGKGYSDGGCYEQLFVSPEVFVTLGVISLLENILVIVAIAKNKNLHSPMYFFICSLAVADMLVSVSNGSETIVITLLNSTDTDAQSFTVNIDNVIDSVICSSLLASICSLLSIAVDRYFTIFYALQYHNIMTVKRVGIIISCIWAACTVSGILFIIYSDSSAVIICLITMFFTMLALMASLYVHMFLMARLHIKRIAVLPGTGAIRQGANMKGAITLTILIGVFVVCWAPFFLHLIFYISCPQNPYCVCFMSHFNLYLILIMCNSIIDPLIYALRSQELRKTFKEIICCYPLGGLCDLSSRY
# Measurement Notes: Agonist activity at human melanocortin receptor (hMC4R).
# Assay type: functional
pEC50: −log10 of the molar value.
Quantity Name: pEC50

Compound | System Name | Endpoint Result
CCCCC(=O)N[C@H]1CC(=O)NCCCC[C@@H](C(N)=O)NC(=O)[C@H](Cc2c[nH]c3ccccc23)NC(=O)[C@H](CCCNC(=N)N)NC(=O)[C@@H](Cc2ccccc2)NC(=O)[C@H](Cc2cnc[nH]2)NC1=O | Melanocortin receptor 4 (Homo sapiens, UniProt P32245) | 9.05
CCCCC(=O)N[C@H]1CC(=O)NCCCC[C@@H](C(N)=O)NC(=O)[C@H](Cc2c[nH]c3ccccc23)NC(=O)[C@H](CCCNC(=N)N)NC(=O)[C@@H](Cc2ccccc2)NC(=O)C2(CCc3c(cccc3OCC)C2)NC1=O (mixture of isomers) | Melanocortin receptor 4 (Homo sapiens, UniProt P32245) | 7.46
CCCCC(=O)N[C@H]1CC(=O)NCCCC[C@@H](C(N)=O)NC(=O)[C@H](Cc2c[nH]c3ccccc23)NC(=O)[C@H](CCCN=C(N)N)NC(=O)[C@@H](Cc2ccccc2)NC(=O)C2(CCc3cc(Cl)ccc3C2)NC1=O (mixture of isomers) | Melanocortin receptor 4 (Homo sapiens, UniProt P32245) | 7.48

---

# System Name: Melanocortin receptor 5 (Homo sapiens)
# Sequence (P33032 whole entry): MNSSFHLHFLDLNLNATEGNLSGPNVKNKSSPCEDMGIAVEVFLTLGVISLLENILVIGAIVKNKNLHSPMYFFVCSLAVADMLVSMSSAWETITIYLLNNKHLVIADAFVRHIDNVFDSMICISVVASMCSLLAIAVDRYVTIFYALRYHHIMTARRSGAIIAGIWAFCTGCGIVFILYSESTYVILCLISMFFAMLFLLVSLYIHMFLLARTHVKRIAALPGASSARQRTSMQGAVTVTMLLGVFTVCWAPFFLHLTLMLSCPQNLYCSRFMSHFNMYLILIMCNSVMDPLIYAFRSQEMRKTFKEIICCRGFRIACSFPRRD
# Measurement Notes: Agonistic activity against human melanocortin receptor (hMC5R) for cAMP accumulation
# Type: functional
pEC50: −log10 of the molar value.

Chem Smiles | System Name | pEC50
CCCCC(=O)N[C@H]1CC(=O)NCCCC[C@@H](C(N)=O)NC(=O)[C@H](Cc2c[nH]c3ccccc23)NC(=O)[C@H](CCCNC(=N)N)NC(=O)[C@@H](Cc2ccccc2)NC(=O)[C@H](Cc2cnc[nH]2)NC1=O | Melanocortin receptor 5 (Homo sapiens) | 7.48
